Assay: Solubility in nitromethane
Assay type: physicochemical
Details: 9 °C, organic solvent or mixture, thermodynamic from solid, read-out: solubility
MEASURED QUANTITY: solubility (µg/mL)
Numbers only, in µg/mL.

q: Requested field: solubility. Item: O=C(O)CCCC=CCC1C(O)CC(O)C1C=CC(O)CCc1ccccc1 (stereo not shown)
a: 4100
